- System: HOP-92 NSCLC
- EXPERIMENT_NOTES: NCI tumour cell line growth inhibition, 48 h; in the data active = GI50 below about 0.43 µM; inactive = the rest
Outcome codes: active, inactive

[
  {
    "MOLECULE": "COc1ccc(-c2nc(/C=C3\\SC(=NCc4ccccc4)NC3=O)c3ccccn23)cc1",
    "CATEGORY_LABEL": "inactive"
  },
  {
    "MOLECULE": "C#CCNC(=O)[C@H](CC)[C@H]1CC[C@H](C)[C@H]([C@@H](C)[C@H](O)[C@H](C)C(=O)[C@H](CC)C2O[C@]3(C=CC(=O)[C@]4(CC[C@@](C)([C@H]5CC[C@](O)(CC)[C@H](C)O5)O4)O3)[C@H](C)C[C@@H]2C)O1 (stereo partly drawn)",
    "CATEGORY_LABEL": "inactive"
  },
  {
    "MOLECULE": "COC(=O)CCCCC(=O)c1c(C)[nH]c(/C=C2\\N=C(c3ccc[nH]3)C=C2OC)c1C",
    "CATEGORY_LABEL": "active"
  }
]
